Data credit: patent US11091496B2

Recorded % Oxycodone, % IVA-IVD in hydrolysis mixture by entry
Assay type: physicochemical
Details: […]; total 1 mg/ml; 0.1 N HCl 37° C.; 2.92 h
Recorded endpoint: % Oxycodone, % IVA-IVD in hydrolysis mixture (%)

Compound | Recorded value
COc1ccc2c3c1O[C@H]1[C@]4(CCC5(O)[C@@H](C2)N(C)CC[C@]315)O[C@H](C)C[C@H](C)O4 (some centres unmarked) | 24.8
COc1ccc2c3c1O[C@H]1C4(CCC5(O)[C@@H](C2)N(C)CC[C@]315)O[C@H](C)C[C@@H](C)O4 (some centres unmarked) | 0.7
COc1ccc2c3c1O[C@H]1C4(CCC5(O)[C@@H](C2)N(C)CC[C@]315)O[C@@H](C)C[C@H](C)O4 (some centres unmarked) | 15
COc1ccc2c3c1O[C@H]1[C@@]4(CCC5(O)[C@@H](C2)N(C)CC[C@]315)O[C@H](C)C[C@H](C)O4 (some centres unmarked) | 8.7
COc1ccc2c3c1O[C@H]1C(=O)CC[C@@]4(O)[C@@H](C2)N(C)CC[C@]314 [Oxycodone, oxycodone, reference compound] | 50.9

---

Recorded % Oxycodone, % IVA-IVD in hydrolysis mixture by entry
Type: physicochemical
Details: […]; total 1 mg/ml; 0.1 N HCl 37° C.; 25 h
Recorded endpoint: % Oxycodone, % IVA-IVD in hydrolysis mixture

Molecule | Recorded value
COc1ccc2c3c1O[C@H]1C4(CCC5(O)[C@@H](C2)N(C)CC[C@]315)O[C@@H](C)C[C@H](C)O4 (stereo partly drawn) [IVC, oxycodone 2S,4S-pentanediol ketal] | 0%
COc1ccc2c3c1O[C@H]1[C@@]4(CCC5(O)[C@@H](C2)N(C)CC[C@]315)O[C@H](C)C[C@H](C)O4 (stereo partly drawn) [IVB, oxycodone 2S,4R-pentanediol ketal] | 9.3%
COc1ccc2c3c1O[C@H]1C(=O)CC[C@@]4(O)[C@@H](C2)N(C)CC[C@]314 [Oxycodone, oxycodone, reference compound] | 86.4%
COc1ccc2c3c1O[C@H]1[C@]4(CCC5(O)[C@@H](C2)N(C)CC[C@]315)O[C@H](C)C[C@H](C)O4 (stereo partly drawn) [IVA, oxycodone 2R,4S-pentanediol ketal] | 4.3%
COc1ccc2c3c1O[C@H]1C4(CCC5(O)[C@@H](C2)N(C)CC[C@]315)O[C@H](C)C[C@@H](C)O4 (stereo partly drawn) [IVD, oxycodone 2R,4R-pentanediol ketal] | 0%

---

Assay type: physicochemical
Details: […]; total 1 mg/ml; 0.1 N HCl 37° C.; 1.167 h
Recorded % Oxycodone, % IVA-IVD in hydrolysis mixture by entry
Recorded endpoint: % Oxycodone, % IVA-IVD in hydrolysis mixture (%)

Compound | Recorded value
COc1ccc2c3c1O[C@H]1C4(CCC5(O)[C@@H](C2)N(C)CC[C@]315)O[C@H](C)C[C@@H](C)O4 (some centres unmarked) | 4.8
COc1ccc2c3c1O[C@H]1C4(CCC5(O)[C@@H](C2)N(C)CC[C@]315)O[C@@H](C)C[C@H](C)O4 (some centres unmarked) | 26
COc1ccc2c3c1O[C@H]1[C@]4(CCC5(O)[C@@H](C2)N(C)CC[C@]315)O[C@H](C)C[C@H](C)O4 (some centres unmarked) | 25.6
COc1ccc2c3c1O[C@H]1C(=O)CC[C@@]4(O)[C@@H](C2)N(C)CC[C@]314 [Oxycodone, oxycodone, reference compound] | 33
COc1ccc2c3c1O[C@H]1[C@@]4(CCC5(O)[C@@H](C2)N(C)CC[C@]315)O[C@H](C)C[C@H](C)O4 (some centres unmarked) | 10.7
